Molecular target: wt-Aurora-B^60-361/INCENP^790-847 (Xenopus laevis)
Construct: GST (N, cleaved yes); made in house; host or cells: E. coli BL21(DE3) with pUBS520 helper plasmid
Sequence (Q6DE08 60-361, one chain of several): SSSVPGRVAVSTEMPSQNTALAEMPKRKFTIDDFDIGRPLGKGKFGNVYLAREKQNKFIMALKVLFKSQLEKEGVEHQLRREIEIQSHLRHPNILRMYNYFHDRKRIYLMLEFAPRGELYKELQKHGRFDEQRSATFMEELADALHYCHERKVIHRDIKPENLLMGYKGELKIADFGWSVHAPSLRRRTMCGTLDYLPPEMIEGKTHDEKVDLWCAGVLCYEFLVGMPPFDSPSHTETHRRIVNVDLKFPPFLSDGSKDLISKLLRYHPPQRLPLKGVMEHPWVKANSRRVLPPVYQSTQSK
Assay: radioactive kinase filterbinding assay, IC50 determination
Assay type: biochemical
Conditions: wt enzyme complex at 5 nM; 100 µM ATP, 10 µM substrate peptide; spread printed ± 2 nM
endpointName: IC50 (nM)
Quick reminder: number only, in nM, skip the unit.

## Task Query: IC50; subject: CCS(=O)(=O)Nc1ccc2c(c1)/C(=C(/Nc1ccc(CN3CCCCC3)cc1)c1ccccc1)C(=O)N2 [Hesperadin]
## Result 7

====

Target: G96V-Aurora-B^60-361/INCENP^790-847 (Xenopus laevis, UniProt Q6DE08, G96V)
Construct: GST (N, cleaved yes)
Sequence (Q6DE08 60-361 G96V): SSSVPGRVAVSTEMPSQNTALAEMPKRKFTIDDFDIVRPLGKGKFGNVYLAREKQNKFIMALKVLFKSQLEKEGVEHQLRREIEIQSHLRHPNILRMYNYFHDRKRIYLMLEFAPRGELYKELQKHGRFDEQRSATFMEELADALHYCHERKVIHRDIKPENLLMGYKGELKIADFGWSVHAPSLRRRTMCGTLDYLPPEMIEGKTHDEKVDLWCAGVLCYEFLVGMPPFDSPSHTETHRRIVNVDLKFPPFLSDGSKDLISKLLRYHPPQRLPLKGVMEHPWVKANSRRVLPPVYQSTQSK
Sequence (O13024 790-847 partner limits assumed): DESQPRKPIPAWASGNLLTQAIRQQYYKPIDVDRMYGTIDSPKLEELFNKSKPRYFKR
Assay: radioactive kinase filterbinding assay, IC50 determination
Settings: G96V enzyme complex at 5 nM; 100 µM ATP, 10 µM substrate peptide; spread printed ±13 nM
endpointName: pIC50
Lab note: report pIC50 as minus log10 of the concentration in molar units, number only.

## Task Need pIC50 of CCS(=O)(=O)Nc1ccc2c(c1)/C(=C(/Nc1ccc(CN3CCCCC3)cc1)c1ccccc1)C(=O)N2 [Hesperadin] , thanks.
## Result 7.60

Where do these numbers come from? They come from patent EP1715036A1.
